Assay: Permeability across PBCEC monolayers on Transwell filters
Conditions: pig
attribute measured: efflux ratio at 24 h, 10 μM

Input CN1C[C@H](C(=O)N[C@]2(C)O[C@@]3(O)[C@@H]4CCCN4C(=O)[C@H](Cc4ccccc4)N3C2=O)C=C2c3cccc4[nH]cc(c34)C[C@H]21 , output reported efflux ratio at 24 h, 10 μM.
< 2

* * *

Experiment: Active transport study, equal concentrations in both compartments
Conditions: pig, PBCEC monolayers
attribute measured: recovery at 48 h, 1 µM (%)
Numbers only, in %.

Report recovery at 48 h, 1 µM, nothing else, for this compound: CC(C)[C@@]1(NC(=O)[C@@H]2C=C3c4cccc5[nH]cc(c45)C[C@H]3N(C)C2)O[C@@]2(O)[C@@H]3CCCN3C(=O)[C@H](Cc3ccccc3)N2C1=O
60
